# Procedure Details: Selectivity index, ratio of IC50 for HEK293 cells to IC50 for Trypanosoma brucei brucei 427 bloodstream form
# Format: toxicity, cell-based
# Measurement Parameters: human, read-out: Ratio IC50
Measured Attribute: selectivity ratio

1. O=C(Nc1cccc(-c2nc3ncccc3o2)c1)c1ccco1
> 245
2. Cc1ccc(NC(=O)c2ccco2)cc1-c1nc2ncccc2o1
> 88
3. O=C(Nc1ccc(Cl)c(-c2nc3ncccc3o2)c1)c1ccco1
> 345
4. O=C(Nc1ccc(Cl)c(-c2nc3ncccc3o2)c1)c1cnco1
> 45
